# protocol.description: qHTS assay to identify small molecule agonists of H2AX (AID 1224845); note: potency is the fitted concentration of half-maximal effect
# conditions: CHO-K1 phospho-H2AX Ser139 HTRF, 3 h; series mostly up to 154 µM
Inconclusive results are not listed. The source made the active and inactive calls. Calls come from the whole dose curve; as a rule, active = well fitted activation curve with a large enough effect in the signal ratio in the repeat runs (not every such curve was filed as active); inconclusive = weak or mixed curves; inactive = flat fitted curve, though single readings scatter; the % refers to the signal ratio.

compound | Potency
BrC1CCC(Br)C(Br)CCC(Br)C(Br)CCC1Br (configuration not stated) | 89.4 µM (active)
Cc1cccc([N+](=O)[O-])c1C(=O)O | inactive
O=C(Nc1ccccc1SSc1ccccc1NC(=O)c1ccccc1)c1ccccc1 | 18 µM (active)
CC(C)(C)c1ccccc1 | inactive
CC(=O)CC(=O)Nc1ccc2[nH]c(=O)[nH]c2c1 | inactive
NC(N)=Nc1nc(CSCC/C(N)=N/S(N)(=O)=O)cs1 | inactive
CCCCC(CC)COC(=O)CC(C(=O)OCC(CC)CCCC)S(=O)(=O)O (configuration not stated) | inactive
